The reported measurements were obtained from patent US20110105603A1.

# Tested On: UniProt P07858
// reported IC50 per item
Measured Property: IC50 (nM)

Molecule: [2H][C@@](CC(C)C)(NC(=O)[C@H]1O[C@@H]1C(=O)O)C(=O)NCCC(C)C
Tested On: UniProt P07858
Display Unit: nM
Recorded Measurement: 1.9

Molecule: CC(C)CCNC(=O)[C@H](CC(C)C)NC(=O)[C@H]1O[C@@H]1C(=O)O [Compound E64c]
Tested On: UniProt P07858
Display Unit: nM
Recorded Measurement: 1

Molecule: [2H]C([2H])([2H])C(C)C[C@H](NC(=O)[C@H]1O[C@@H]1C(=O)O)C(=O)NCCC(C)C (stereo partly shown)
Tested On: UniProt P07858
Display Unit: nM
Recorded Measurement: 2

Molecule: [2H]C([2H])([2H])C([2H])(C[C@H](NC(=O)[C@H]1O[C@@H]1C(=O)O)C(=O)NCCC(C)C)C([2H])([2H])[2H]
Tested On: UniProt P07858
Display Unit: nM
Recorded Measurement: 1.5
